Values were extracted from the Human Domainome abundance scans (Beltran et al. 2025).

B1: FERM and PDZ domain-containing protein 4, residues 75 to 154; numbered along this chain, Q14CM0 (parent)
chain: APRKVEMRRDPVLGFGFVAGSEKPVVVRSVTPGGPSEGKLIPGDQIVMINDEPVSAAPRERVIDLVRSCKESILLTVIQP

Variants of: B1
Experiment: abundance fitness (aPCA) (normalised: wild type 0, dead -1); higher = more abundant; growth selection in yeast, the domain comes from the species named
Details: Homo sapiens
endpoint: abundance fitness

Using known records, supply abundance fitness for E60V -0.131

Consider the variant P53S and give its recorded abundance fitness. -0.002

Output abundance fitness of L40M -0.19

Tell me measured abundance fitness for L65F please. -0.109
